# Assay overview: protein stability index of a GFP-peptide fusion (yeast GPS) (PSI 1-4); higher = more stable; sorted into four equal gates, so the index is relative within each strain
# Condition details: san1∆
protein stability index of 2 or higher: 1. Under 2: 0.

Some solved entries appear below for comparison.
[[record]]
sequence_chain = "KKWNDLKNKNFKCQEKD [SIR2]"
label_value = 1

[[record]]
sequence_chain = "NCPHSDSTQLLETILEE [SSN2]"
label_value = 1

[[record]]
sequence_chain = "NDFANNLPKEGDIVLTR [CSL4]"
label_value = 1

[[record]]
sequence_chain = "NQQQQNQQPQQQQQQQQ [SWI1]"
label_value = 1

[[record]]
sequence_chain = "IETEFLLFTVKLKGLMK [IRR1]"
label_value = 1


Exercise: Reported protein stability index reaches at least 2 for ANGIINVKEITEKLKIS [SMC3] ?
Solution: 1

Exercise: Reported protein stability index reaches at least 2 for TTDKNTTDDKSMDTKKK [BRN1] ?
Solution: 1

Exercise: Reported protein stability index reaches at least 2 for LIENCKKRNMPLQSIPE [SWI1] ?
Solution: 1

Exercise: Reported protein stability index reaches at least 2 for YIKNILEAPVKSIENPT [YLR335W/NUP2] ?
Solution: 1

Exercise: Reported protein stability index reaches at least 2 for SLYTNTSRKALEEVSLK [RPL3] ?
Solution: 1

Exercise: Reported protein stability index reaches at least 2 for ADLMALENATWTMRIEG [SNF12] ?
Solution: 1

###

Reported protein stability index values follow for various sequences
# Assay overview: protein stability index of a GFP-peptide fusion (yeast GPS) (PSI 1-4); higher = more stable; sorted into four equal gates, so the index is relative within each strain
# Condition details: san1∆
The answer should be written as a number, with no unit following it.

[[record]]
sequence_chain = "IKVPTYIRKLISSGLLY [SRB8]"
measurement_label = "protein stability index"
data_value = 1.38


Exercise: I would be grateful if you could share the reported protein stability index for EYNEDSRLCTPIPVQGE [RPN13] .
Solution: 2.27

Exercise: I would be grateful if you could share the reported protein stability index for RLTGSLLAHKVADEEAN [RPC37] .
Solution: 1.16

Exercise: I would be grateful if you could share the reported protein stability index for LFGSSNNNNNNNNSNNI [YGL172W/NUP49] .
Solution: 2.53

Exercise: I would be grateful if you could share the reported protein stability index for MTSENPDVLLSRVINVV [RRP6] .
Solution: 1.49

Exercise: I would be grateful if you could share the reported protein stability index for EPVKEYTFKTSMRVKPS [YMR129W/POM152] .
Solution: 3.04

Exercise: I would be grateful if you could share the reported protein stability index for FENCYLEGNDIHALAAK [FAS1] .
Solution: 2.88

Exercise: I would be grateful if you could share the reported protein stability index for TFKSVSKYGMLLLRCDD [POP3] .
Solution: 1.96

Exercise: I would be grateful if you could share the reported protein stability index for PYPKSRYNRAVPDSKIR [RPL10] .
Solution: 3.05

Exercise: I would be grateful if you could share the reported protein stability index for CLEACSFILSSLEDPQV [YDL116W/NUP84] .
Solution: 2.87

###

# Assay overview: protein stability index of a GFP-peptide fusion (yeast GPS) (PSI 1-4); higher = more stable; sorted into four equal gates, so the index is relative within each strain
# Condition details: san1∆
protein stability index of 3 or higher: Criterion met. Under 3: Criterion not met.

Exercise: Reported protein stability index reaches at least 3 for SVRTAVFSALKNLISRI [ECM29] ?
Solution: Criterion not met

Exercise: Reported protein stability index reaches at least 3 for RNADELSSYQKKIIKCD [PRE5] ?
Solution: Criterion not met

Exercise: Reported protein stability index reaches at least 3 for LRLLLLLIEFPYLPKHY [YJR042W/NUP85] ?
Solution: Criterion not met

Exercise: Reported protein stability index reaches at least 3 for LQQICRVRNKDIRKFLD [RPL9A] ?
Solution: Criterion not met

Exercise: Reported protein stability index reaches at least 3 for ANRDDVKGRENELLLPS [RPC82] ?
Solution: Criterion met

Exercise: Reported protein stability index reaches at least 3 for TRDETVSLIKKYKLISR [YML103C/NUP188] ?
Solution: Criterion not met

Exercise: Reported protein stability index reaches at least 3 for LIEILRLRALQLYFQKN [RRI2] ?
Solution: Criterion not met

###

Reported protein stability index values follow for various sequences
# Assay overview: protein stability index of a GFP-peptide fusion (yeast GPS) (PSI 1-4); higher = more stable; sorted into four equal gates, so the index is relative within each strain
# Condition details: san1∆
The answer should be written as a number, with no unit following it.

Here is how some sequences turned out for protein stability index.
[[record]]
sequence_chain = "NTLVRPNGTKKAYVRLT [RPL25]"
data_value = 3.03

[[record]]
sequence_chain = "TEGEPKKKRGFLGLFGR [SRP68]"
data_value = 2.92

[[record]]
sequence_chain = "TSFDRTKKTITPMGGFV [RPL3]"
data_value = 2.79

[[record]]
sequence_chain = "FQHILRLLNTNVDGNIK [RPS18A]"
data_value = 2.83

[[record]]
sequence_chain = "PRFNRDNKVSPAAAAKK [RPS26B]"
data_value = 2.61


We next turn to a different sequence, shown below.
Exercise: I would be grateful if you could share the reported protein stability index for KVAHTSYKRIYGEYPPT [PRE8] .
Solution: 3.01

###

# Assay overview: protein stability index of a GFP-peptide fusion (yeast GPS) (PSI 1-4); higher = more stable; sorted into four equal gates, so the index is relative within each strain
# Condition details: ubr1∆
Measurement label: protein stability index
The answer should be written as a number, with no unit following it.

[[record]]
sequence_chain = "DSQIVTPGELVTDDPIW [RRP4]"
data_value = 2.94

[[record]]
sequence_chain = "RGREEAASFKKLYKTPI [PRE10]"
data_value = 2.97


Exercise: I would be grateful if you could share the reported protein stability index for NVLDYFAESPFFDKTSN [MED6] .
Solution: 3.04

Exercise: I would be grateful if you could share the reported protein stability index for YQVDEDVKSSLSKVFSD [YJL039C/NUP192] .
Solution: 2.93

###

# Assay overview: protein stability index of a GFP-peptide fusion (yeast GPS) (PSI 1-4); higher = more stable; sorted into four equal gates, so the index is relative within each strain
# Condition details: doa10∆
Measurement label: protein stability index
The answer should be written as a number, with no unit following it.

[[record]]
sequence_chain = "IDKNHGFERLTVNEPQM [SRB7]"
data_value = 3.03


Exercise: I would be grateful if you could share the reported protein stability index for MAMNITPRLYTDRSRDF [RPB2] .
Solution: 2.93

Exercise: I would be grateful if you could share the reported protein stability index for YMRKQVGVGKLNKLYGG [RPS19A] .
Solution: 2.99

Exercise: I would be grateful if you could share the reported protein stability index for MNAILTDVKLTLPQPRL [SMD1] .
Solution: 2.98

Exercise: I would be grateful if you could share the reported protein stability index for RASDLRMTIRTRGRSAT [RRP43] .
Solution: 2.93

Exercise: I would be grateful if you could share the reported protein stability index for NAKESNYTDLIWFPEDF [MED1] .
Solution: 3.06

Exercise: I would be grateful if you could share the reported protein stability index for TELSNKETTIEKLSSEI [YIL149C/MLP2] .
Solution: 3.03

Exercise: I would be grateful if you could share the reported protein stability index for DLISKKTKTSLLPTIKR [RPR2] .
Solution: 3.09

Exercise: I would be grateful if you could share the reported protein stability index for QKGITSYAVSPYAQKPL [QCR8] .
Solution: 2.92

###

# Assay overview: protein stability index of a GFP-peptide fusion (yeast GPS) (PSI 1-4); higher = more stable; sorted into four equal gates, so the index is relative within each strain
# Condition details: doa10∆
Measurement label: protein stability index
The answer should be written as a number, with no unit following it.

Here is how some sequences turned out for protein stability index.
[[record]]
sequence_chain = "DDRGPVLESIVARTFWA [BRR2]"
measurement_label = "protein stability index"
data_value = 2.67

[[record]]
sequence_chain = "EDTLSGYDPIVSTRAID [PRP28]"
measurement_label = "protein stability index"
data_value = 2.51

[[record]]
sequence_chain = "IEANVTVKTSDDYVLRI [RPS1A]"
measurement_label = "protein stability index"
data_value = 2.98

[[record]]
sequence_chain = "LERTDLKSKVIDSPELL [RPN7]"
measurement_label = "protein stability index"
data_value = 3.17

[[record]]
sequence_chain = "EYQIVYYNPQAGTKITI [RGR1]"
measurement_label = "protein stability index"
data_value = 2.15


Exercise: I would be grateful if you could share the reported protein stability index for NAKDKERLQLLEDVVGA [SMC3] .
Solution: 3.32

Exercise: I would be grateful if you could share the reported protein stability index for YGFEDESAPITAEDSWA [RPB2] .
Solution: 3.06

Exercise: I would be grateful if you could share the reported protein stability index for PNRITLTDHRKETWLHE [SRB8] .
Solution: 2.8

Exercise: I would be grateful if you could share the reported protein stability index for MSDFVPIDAGLNEAPFP [MCD1] .
Solution: 3

Exercise: I would be grateful if you could share the reported protein stability index for TANAKHTSSNSREIAQP [SMB1] .
Solution: 2.91

Exercise: I would be grateful if you could share the reported protein stability index for AFSYPRMYEEASGKEVE [RPN2] .
Solution: 2.66
